Test system: E. coli TESEC Mtb Alr
Experiment: growth (OD600 after 10 h); higher = more growth (less inhibition)
Settings: arabinose 1000 nM; compound 0.1 mM; raw OD600 reference: median of DMSO wells 0.294, cell-free background 0.041
Where a name gives a salt, the structure may show the parent alone.
ENDPOINT LABEL: growth

[
  {
    "COMPOUND": "CS(=O)(=O)Nc1ccc([N+](=O)[O-])cc1Oc1ccccc1 [Nimesulide]",
    "MEASURED ON": "E. coli TESEC Mtb Alr",
    "VALUE": 0.206
  },
  {
    "COMPOUND": "O=C(O)Cc1sc(-c2ccccc2)nc1-c1ccc(Cl)cc1",
    "MEASURED ON": "E. coli TESEC Mtb Alr",
    "VALUE": 0.17
  },
  {
    "COMPOUND": "CCC1=C(C)CN(C(=O)NCCc2ccc(S(=O)(=O)NC(=O)N[C@H]3CC[C@H](C)CC3)cc2)C1=O [Glimepiride]",
    "MEASURED ON": "E. coli TESEC Mtb Alr",
    "VALUE": 0.299
  },
  {
    "COMPOUND": "O=C1c2cccc3c2[C@H](CCC3)CN1[C@@H]1CN2CCC1CC2 [Palonosetron hydrochloride]",
    "MEASURED ON": "E. coli TESEC Mtb Alr",
    "VALUE": 0.281
  },
  {
    "COMPOUND": "CCN(CC)CCCC(C)Nc1ccnc2cc(Cl)ccc12 (centres undefined) [Chloroquine diphosphate]",
    "MEASURED ON": "E. coli TESEC Mtb Alr",
    "VALUE": 0.338
  },
  {
    "COMPOUND": "CC(=O)[C@H]1CC[C@H]2[C@@H]3C[C@H](C)C4=CC(=O)CC[C@]4(C)[C@H]3[C@@H](O)C[C@]12C",
    "MEASURED ON": "E. coli TESEC Mtb Alr",
    "VALUE": 0.162
  },
  {
    "COMPOUND": "COc1ccc2c(c1)c(CC(=O)OCC(=O)O)c(C)n2C(=O)c1ccc(Cl)cc1",
    "MEASURED ON": "E. coli TESEC Mtb Alr",
    "VALUE": 0.198
  },
  {
    "COMPOUND": "O=C(O)c1cccnc1",
    "MEASURED ON": "E. coli TESEC Mtb Alr",
    "VALUE": 0.346
  },
  {
    "COMPOUND": "CC(=O)N(CC(O)CO)c1c(I)c(C(=O)NCC(O)CO)c(I)c(C(=O)NCC(O)CO)c1I (centres undefined) [Iohexol]",
    "MEASURED ON": "E. coli TESEC Mtb Alr",
    "VALUE": 0.285
  }
]
